assay: qHTS of pediatric cancer cell lines to identify multiple opportunities for drug repurposing: Confirmatory screen for TC32 cells (AID 1347118); details: TC32 Ewing sarcoma cells viability qHTS; series mostly up to 0.556 µM;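 also: cells exposed to compound for 48 h before the read; nearly all actives have a fitted effect of over 65% in size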
Inconclusive results are not listed. Calls of active or inactive are those of the source. Calls follow the shape of the dose curve; as a rule, active = well fitted cell-killing curve with a large enough effect; inconclusive = small, poorly fitted or top-dose-only effect; inactive = no such curve, though single readings can be large or run the other way.
Lab note: assign the record to one of Y = active, N = inactive

Each compound tested received a call. Report the one for CCN(CC)CCOc1ccc2c(c1)C(=O)c1cc(OCCN(CC)CC)ccc1-2 .
Y

Recorded test outcome, item CCN1/C(=C/C=C/c2sc3ccccc3[n+]2CC)Sc2ccccc21
Y

For CCN[C@@H]1C[C@H](N)[C@@H](OC2OC(CN)=CCC2N)[C@H](O)[C@H]1O[C@H]1OC[C@](C)(O)[C@H](NC)[C@H]1O (some centres undefined) , which call appears in the assay record?
N

In this assay, the call recorded for C[C@@]12C(=O)OC(=O)[C@]1(C)C1CCC2O1 was what?
Y

###

assay: qHTS assay for small molecule agonists of the antioxidant response element (ARE) signaling pathway measured by Nrf2-dependant transcriptional activity - cell viability counter screen (AID 720653); conditions: ARE-bla HepG2 viability, CellTiter-Glo ATP luminescence, 16 h; hits give low values; also: % is scaled to controls: 0 for no effect and ±100 for the full control effect
Records with an inconclusive call do not appear.
quantity_kind: max response (%)
Kindly provide the numeric value in % only, without the unit symbol.

Entry CCCCCCCCCCCCCC(=O)OC(C)C : reported max response = ?
-11.9

Which max response value belongs to CCCCCCCC/C=C\CCCCCCCCN ?
3.81

Look at this compound and give its reported max response. CCOc1ccccc1C(N)=O
5.3

Which value of max response has been reported for C=C[C@@]1(C)CC(=O)[C@]2(O)[C@@]3(C)[C@@H](O)CCC(C)(C)[C@@H]3[C@H](O)[C@H](OC(C)=O)[C@@]2(C)O1 in the records?
4.11

Please give the measured max response for this compound: C=C[C@H]1CN2CC[C@H]1C[C@@H]2[C@@H](O)c1ccnc2ccc(OC)cc12
21.8

Item C#C[C@]1(O)CC[C@H]2[C@@H]3CCC4=Cc5oncc5C[C@]4(C)[C@H]3CC[C@@]21C has what recorded max response?
1.42

I would be grateful if you could share the reported max response for COc1ccc(C(Cl)=C(c2ccc(OC)cc2)c2ccc(OC)cc2)cc1 .
-11.1

Request the reported max response associated with CN(C)C(=O)Nc1ccc(Cl)c(Cl)c1
12.2

###

test system: CP215; assay: qHTS profiling for inhibitors of Plasmodium falciparum proliferation (AID 504749); also: nearly all actives have a fitted effect of over 60% in size; conditions: P. falciparum in erythrocytes, SYBR Green DNA, 72 h; series mostly up to 28.7 µM
Records with an inconclusive call do not appear. Activity calls are given as the source filed them. Calls follow the shape of the dose curve; as a rule, active = well fitted inhibition curve with a large enough effect; inconclusive = small, poorly fitted or top-dose-only effect; inactive = flat fitted curve, though single readings scatter.
Give your call using only these classes: active, inactive

Could you check what this test reported for COc1ccc(CCN(C)CCCN2CCc3cc(OC)c(OC)cc3CC2=O)cc1OC ?
inactive

Per the records of this test, what outcome belongs to NCCNc1cccc2ccccc12 ?
inactive

Which outcome did this test record for the compound CCCCN=C(N)N=C(N)N ?
inactive

Write down the call the test reported for this compound. Item: CC(C)CCCC(C)N (stereo not drawn)
inactive

Field: outcome | Entry: O=C(Nc1cccc(C2=NCCN2)c1)Nc1cccc(C2=NCCN2)c1
active

// return assay outcome for CC(=O)Nc1ccc(OC(=O)c2ccccc2OC(C)=O)cc1
inactive

Each compound tested received a call. Report the one for O=C(c1ccc(F)cc1)C1CCN(CCn2c(=S)[nH]c3ccccc3c2=O)CC1 .
active

Name the outcome recorded for CCCN(CCC)S(=O)(=O)c1ccc(C(=O)O)cc1 in the assay.
inactive

Please share the test call associated with Cc1cccc(C)c1NC(=O)CN1CCCCCC1 .
inactive

Dear colleague, could you share the recorded outcome for O=C(O)CCC(=O)Nc1ccc(S(=O)(=O)Nc2nccs2)cc1 when you have a moment?
inactive

Please let me know the test result on file for CCOC(=O)c1c(N)sc2c1CCN(Cc1ccccc1)C2 .
active

Per the records of this test, what outcome belongs to O=C(Oc1cccc2cccnc12)c1ccccc1 ?
inactive

Called result for CCc1oc2ccccc2c1C(=O)c1cc(I)c(O)c(I)c1
inactive
